Tested on: biotinyl-Met-oxazolone
procedureDetails: self-aminoacylation, catalytic enhancement (BMO) (fold over background); higher = more active; k-Seq, kA / k0A0; sequences stand for … in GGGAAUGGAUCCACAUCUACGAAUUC…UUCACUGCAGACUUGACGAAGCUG
Fewer inactive variants are shown than the library holds.

>  <sequenceText>
AUGUUUGCUAAUAGUCGCAUG [Fam3.1 aminoacylation ribozyme variant]

>  <self-aminoacylation>
1.58

$$$$
>  <sequenceText>
GUUCACCUAGGUCAUCGAGUG [Fam2.2 aminoacylation ribozyme variant]

>  <self-aminoacylation>
11.4

$$$$
>  <sequenceText>
UUUCACCUAUGUCAUCGGGUG [Fam2.2 aminoacylation ribozyme variant]

>  <self-aminoacylation>
4.6

$$$$
>  <sequenceText>
AUUCACCUGGGUCAUCGGGCG [Fam2.2 aminoacylation ribozyme variant]

>  <self-aminoacylation>
4.48

$$$$
>  <sequenceText>
AAGUUCGCUAAUAGUCGGAAG [Fam3.1 aminoacylation ribozyme variant]

>  <self-aminoacylation>
0.621

$$$$
>  <sequenceText>
AAGGUUGCUAAUAGUCACAAG [Fam3.1 aminoacylation ribozyme variant]

>  <self-aminoacylation>
1.72

$$$$
>  <sequenceText>
AUUGACCUAGGUCAUGGGGUG [Fam2.2 aminoacylation ribozyme variant]

>  <self-aminoacylation>
2.92

$$$$
>  <sequenceText>
CUACUUCAAACAACCGGCCUG [Fam1A.1 aminoacylation ribozyme variant]

>  <self-aminoacylation>
2.4

$$$$
>  <sequenceText>
AUUACCCGGGCCAUCGAGUGA [Fam2.1 aminoacylation ribozyme variant]

>  <self-aminoacylation>
8.49

$$$$
>  <sequenceText>
CUACUUCAAAAUAUCGGUCUG [Fam1A.1 aminoacylation ribozyme variant]

>  <self-aminoacylation>
0.936

$$$$
>  <sequenceText>
CUACUGCAGACAAUCGGUCUG [Fam1A.1 aminoacylation ribozyme variant]

>  <self-aminoacylation>
1.06

$$$$
>  <sequenceText>
AAAUUUGUUAAUAGUCGCAAG [Fam3.1 aminoacylation ribozyme variant]

>  <self-aminoacylation>
2.04

$$$$
>  <sequenceText>
AGUACCCUGGUCAUCGAGUAA [Fam2.1 aminoacylation ribozyme variant]

>  <self-aminoacylation>
2.71

$$$$
>  <sequenceText>
AUUUACCUAGGUCACCGGGUG [Fam2.2 aminoacylation ribozyme variant]

>  <self-aminoacylation>
4.23

$$$$
>  <sequenceText>
UCUCACUUCAAGCAAUCGGUC [Fam1B.1 aminoacylation ribozyme variant]

>  <self-aminoacylation>
1.15

$$$$
>  <sequenceText>
CCACACUUCAUGCAAUGGGUC [Fam1B.1 aminoacylation ribozyme variant]

>  <self-aminoacylation>
0.738

$$$$
>  <sequenceText>
CCACACUUCAAGCAUUCGGUG [Fam1B.1 aminoacylation ribozyme variant]

>  <self-aminoacylation>
8.89

$$$$
>  <sequenceText>
AUUCAUCUAAGUCAUCGGGUG [Fam2.2 aminoacylation ribozyme variant]

>  <self-aminoacylation>
10.9

$$$$

----------
Test system: biotinyl-Met-oxazolone
procedureDetails: self-aminoacylation, catalytic enhancement (BMO) (fold over background); higher = more active; k-Seq, kA / k0A0; sequences stand for … in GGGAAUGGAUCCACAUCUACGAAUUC…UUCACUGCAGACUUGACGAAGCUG
Fewer inactive variants are shown than the library holds.

>  <sequenceText>
AUUACCCUGGUCAUCGAGAGU [Fam2.1 aminoacylation ribozyme variant]

>  <self-aminoacylation>
0.991

$$$$
>  <sequenceText>
CCACACUUCAAGCACUCGGGC [Fam1B.1 aminoacylation ribozyme variant]

>  <self-aminoacylation>
3.49

$$$$
>  <sequenceText>
AUUACCCUGGUCAUCGACUGU [Fam2.1 aminoacylation ribozyme variant]

>  <self-aminoacylation>
0.726

$$$$
>  <sequenceText>
CUAGUUCAAACAAUCGGCCUG [Fam1A.1 aminoacylation ribozyme variant]

>  <self-aminoacylation>
1.76

$$$$
>  <sequenceText>
AUUAGCCUGCUCAUCGAGUGA [Fam2.1 aminoacylation ribozyme variant]

>  <self-aminoacylation>
3.42

$$$$
>  <sequenceText>
AAGUUUGCAAGUAGUCGCAAG [Fam3.1 aminoacylation ribozyme variant]

>  <self-aminoacylation>
1.06

$$$$
>  <sequenceText>
AUGUUUGCUAAUAGCCGCAAG [Fam3.1 aminoacylation ribozyme variant]

>  <self-aminoacylation>
0.997

$$$$
>  <sequenceText>
CUACUUCAGACAAUCGGUGUG [Fam1A.1 aminoacylation ribozyme variant]

>  <self-aminoacylation>
1.57

$$$$
>  <sequenceText>
CCACCCUUAAAGCAAUCGGUC [Fam1B.1 aminoacylation ribozyme variant]

>  <self-aminoacylation>
0.96

$$$$
>  <sequenceText>
AUGACCCUCGUCAUCGAGUGA [Fam2.1 aminoacylation ribozyme variant]

>  <self-aminoacylation>
3.35

$$$$
>  <sequenceText>
AUUACCCUGGUCAUUCAGUGA [Fam2.1 aminoacylation ribozyme variant]

>  <self-aminoacylation>
4.7

$$$$
>  <sequenceText>
CUACUUCAAACAUUCGUUCUG [Fam1A.1 aminoacylation ribozyme variant]

>  <self-aminoacylation>
0.669

$$$$
>  <sequenceText>
AUUAACCUAGGUCACCGGGUG [Fam2.2 aminoacylation ribozyme variant]

>  <self-aminoacylation>
4.09

$$$$
>  <sequenceText>
AUUCACUUAGGUCAUUGGGUG [Fam2.2 aminoacylation ribozyme variant]

>  <self-aminoacylation>
3.64

$$$$
>  <sequenceText>
AUUACCCGGGUCAUCGGGUGA [Fam2.1 aminoacylation ribozyme variant]

>  <self-aminoacylation>
13.9

$$$$
>  <sequenceText>
AUUCACCUCGGUCAUCGGAUG [Fam2.2 aminoacylation ribozyme variant]

>  <self-aminoacylation>
0.789

$$$$
>  <sequenceText>
CCACACUUCGAGCAAUCGGCC [Fam1B.1 aminoacylation ribozyme variant]

>  <self-aminoacylation>
1.61

$$$$
>  <sequenceText>
AUUACCCUGUUCAUCGUGUGA [Fam2.1 aminoacylation ribozyme variant]

>  <self-aminoacylation>
6.29

$$$$
>  <sequenceText>
AUUACACUGGUCAUGGAGUGA [Fam2.1 aminoacylation ribozyme variant]

>  <self-aminoacylation>
2.63

$$$$
>  <sequenceText>
AAGUUUUCUAAUAGUCGCCAG [Fam3.1 aminoacylation ribozyme variant]

>  <self-aminoacylation>
1.54

$$$$
>  <sequenceText>
AUUAAGCUAGGUCAUCGGGUG [Fam2.2 aminoacylation ribozyme variant]

>  <self-aminoacylation>
3.88

$$$$
>  <sequenceText>
CUACUUCAAAAAAUCGGUGUG [Fam1A.1 aminoacylation ribozyme variant]

>  <self-aminoacylation>
0.946

$$$$
>  <sequenceText>
AUUACCCUAGUCAUCUAGUGA [Fam2.1 aminoacylation ribozyme variant]

>  <self-aminoacylation>
7.37

$$$$
>  <sequenceText>
CCACACUUUAAGCAAUCAGUC [Fam1B.1 aminoacylation ribozyme variant]

>  <self-aminoacylation>
0.541

$$$$
>  <sequenceText>
CCACACUUCAAGCAAUUGAUC [Fam1B.1 aminoacylation ribozyme variant]

>  <self-aminoacylation>
0.368

$$$$
>  <sequenceText>
AUGCACCUAGGUCAUCGGGUU [Fam2.2 aminoacylation ribozyme variant]

>  <self-aminoacylation>
4.43

$$$$
>  <sequenceText>
AUUACUCUGGUCAUCGAGUAA [Fam2.1 aminoacylation ribozyme variant]

>  <self-aminoacylation>
2.23

$$$$
>  <sequenceText>
AAGUAUGCUAAUAGUUGCAAG [Fam3.1 aminoacylation ribozyme variant]

>  <self-aminoacylation>
1.71

$$$$
>  <sequenceText>
AGUACCCUGGUCAUCGGGUGA [Fam2.1 aminoacylation ribozyme variant]

>  <self-aminoacylation>
17.7

$$$$
>  <sequenceText>
AAGUGGGCUAAUAGUCGCAAG [Fam3.1 aminoacylation ribozyme variant]

>  <self-aminoacylation>
1.56

$$$$
>  <sequenceText>
AUUAACCUAGGUCAGCGGGUG [Fam2.2 aminoacylation ribozyme variant]

>  <self-aminoacylation>
2.59

$$$$
>  <sequenceText>
AUUACCUUGGUCAUCGAGUGU [Fam2.1 aminoacylation ribozyme variant]

>  <self-aminoacylation>
3.47

$$$$
>  <sequenceText>
UAGUUUGCUAAUAUUCGCAAG [Fam3.1 aminoacylation ribozyme variant]

>  <self-aminoacylation>
1.22

$$$$
>  <sequenceText>
CUGCUUCAAACAAUCUGUCUG [Fam1A.1 aminoacylation ribozyme variant]

>  <self-aminoacylation>
0.675

$$$$
>  <sequenceText>
AUUGCCCGGGUCAUCGAGUGA [Fam2.1 aminoacylation ribozyme variant]

>  <self-aminoacylation>
6.39

$$$$
